# Tested on: LXRb homodimer (NR concentration 270 nM)
# ASSAY PROTOCOL: PBM binding z-score (relative to random genomic background probes); higher = stronger binding; sequences stand for … in GC…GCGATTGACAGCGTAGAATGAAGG
Listed next: entries and their corresponding PBM binding z-score.
Reply: number alone, nothing else.

Worked cases, answers included:
| SEQ TEXT | TESTED TARGET | DATA VALUE |
| --- | --- | --- |
| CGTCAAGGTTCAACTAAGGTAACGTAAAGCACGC | LXRb homodimer (NR concentration 270 nM) | 0.335 |
| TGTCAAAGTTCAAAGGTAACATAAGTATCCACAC | LXRb homodimer (NR concentration 270 nM) | 2.12 |
| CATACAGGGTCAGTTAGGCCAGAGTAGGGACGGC | LXRb homodimer (NR concentration 270 nM) | 0.655 |
| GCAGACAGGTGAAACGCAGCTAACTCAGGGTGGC | LXRb homodimer (NR concentration 270 nM) | -1.13 |
| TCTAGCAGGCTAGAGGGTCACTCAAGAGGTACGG | LXRb homodimer (NR concentration 270 nM) | -1.08 |
| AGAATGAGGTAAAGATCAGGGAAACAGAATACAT | LXRb homodimer (NR concentration 270 nM) | -0.108 |
| CGTCCATGGTCATAGGAGGTCAGTGAAGACAGAT | LXRb homodimer (NR concentration 270 nM) | -0.0706 |
| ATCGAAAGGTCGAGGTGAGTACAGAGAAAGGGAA | LXRb homodimer (NR concentration 270 nM) | 0.653 |
| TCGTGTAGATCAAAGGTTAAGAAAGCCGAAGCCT | LXRb homodimer (NR concentration 270 nM) | 0.049 |

Then there is this sequence:
Give the measured PBM binding z-score of TCTTGTAGATCAACAGGAGGTTAAGAACGATCGA .
-0.245

* * *

# Test system: THRa:RXRa (NR concentration 90 nM, RXRa partner concentration 90 nM)
# ASSAY PROTOCOL: PBM binding z-score (relative to random genomic background probes); higher = stronger binding; sequences stand for … in GC…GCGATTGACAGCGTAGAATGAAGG
Returns TRUE if the recorded PBM binding z-score is greater than or equal to 3, and FALSE otherwise.

A selection of reference data follows.
| SEQ TEXT | LABEL |
| --- | --- |
| TGTCAAAGTTCAAAGGTAACGTGAGTATCCACAC | TRUE |
| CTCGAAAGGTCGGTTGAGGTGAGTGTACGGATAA | TRUE |
| ATATGTAGGTTACATCTGGGTCATTCAGGCTATG | TRUE |
| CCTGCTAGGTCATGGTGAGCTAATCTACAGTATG | FALSE |
| TCTTGCAGGCCAGAGGGTCACTCAAGAGGTACGG | FALSE |

I'd appreciate it if you could say whether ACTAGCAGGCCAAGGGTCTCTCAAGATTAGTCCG has PBM binding z-score at least equal to 3.
FALSE

I'd appreciate it if you could say whether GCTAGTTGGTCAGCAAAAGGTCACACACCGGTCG has PBM binding z-score at least equal to 3.
TRUE

I'd appreciate it if you could say whether CCTCGGAGGACAACAGGAGGTCAGAGCAGCCAGA has PBM binding z-score at least equal to 3.
FALSE

I'd appreciate it if you could say whether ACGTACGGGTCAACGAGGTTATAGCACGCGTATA has PBM binding z-score at least equal to 3.
TRUE

I'd appreciate it if you could say whether ACATGTAGGTTAGCTGGGGTCATTCAGACTAGGC has PBM binding z-score at least equal to 3.
TRUE

I'd appreciate it if you could say whether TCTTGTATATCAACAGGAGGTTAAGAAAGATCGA has PBM binding z-score at least equal to 3.
FALSE

I'd appreciate it if you could say whether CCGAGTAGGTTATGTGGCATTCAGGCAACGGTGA has PBM binding z-score at least equal to 3.
FALSE
